Each recorded value in this set is attributed to patent US20240376084A1.

Exercise: state measured EC50 for each of the molecules provided.
- experimental_system: UniProtKB P09616
- Sequence (P09616 27-319 limits assumed): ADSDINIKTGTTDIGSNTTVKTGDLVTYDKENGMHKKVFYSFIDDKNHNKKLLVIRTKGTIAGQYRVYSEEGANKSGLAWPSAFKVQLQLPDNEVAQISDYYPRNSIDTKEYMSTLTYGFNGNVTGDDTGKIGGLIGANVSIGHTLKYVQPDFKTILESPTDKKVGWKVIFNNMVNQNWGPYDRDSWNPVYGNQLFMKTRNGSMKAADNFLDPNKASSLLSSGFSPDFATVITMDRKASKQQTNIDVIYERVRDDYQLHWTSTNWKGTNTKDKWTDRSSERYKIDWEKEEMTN
- procedure_summary: cell-based

Record "C#Cc1cc(NS(=O)(=O)c2cc3[nH]c(=O)c(=O)[nH]c3cc2C)ccc1-c1ccccc1" has UniProtKB P09616 EC50 equal to < 30 nM

Record Cc1cc2[nH]c(=O)c(=O)[nH]c2cc1S(=O)(=O)Nc1ccc(N2CCOCC2C)c(Cl)c1 (stereo not shown) has UniProtKB P09616 EC50 equal to 100 to 1000 nM

Record "Cc1cc(NS(=O)(=O)c2cc3[nH]c(=O)c(=O)[nH]c3cc2C)ccc1OC(F)(F)F" has UniProtKB P09616 EC50 equal to 30 to 100 nM

Record "Cc1cc2[nH]c(=O)c(=O)[nH]c2cc1S(=O)(=O)Nc1ccc(-c2ccc(C#N)c(N(C)C)c2)c(Cl)c1" has UniProtKB P09616 EC50 equal to 30 to 100 nM
